measurement-protocol: refractive index (Na D-line) (dimensionless)
experimental-setup: 318.15 K; 101.33 kPa; Liquid; Standard Abbe refractometry
assay-readout: refractive index
# answer = number (no unit)

// below: answered compounds
compound	refractive index
CCCC(=O)OC [methyl butanoate]	1.3753
CC(C)(C)O [2-methylpropan-2-ol]	1.3741

Task item: Data request, read-out refractive index, for COC(C)=O [methyl ethanoate]
Reply: 1.3486

Task item: Data request, read-out refractive index, for CCC(=O)OC [methyl propanoate]
Reply: 1.3641

----------
experimental-setup: 318.15 K; 101.33 kPa; Liquid
Measured mass density of individual entries
Your answer should be a plain number; it is taken to be in kg/m3.

molecule	mass density, kg/m3
CC(C)(C)O	759.87

Task item: Data request, read-out mass density, for CCCC(=O)OC [methyl butanoate]
Reply: 870.24

Task item: Data request, read-out mass density, for CCC(=O)OC [methyl propanoate]
Reply: 884.3

Task item: Data request, read-out mass density, for COC(C)=O [methyl ethanoate]
Reply: 900.19

These data points were gathered from the NIST ThermoML archive (doi:10.1021/je034290l).
